In this section, each of the molecules is paired with its reported IC50.
- SYSTEM: murine CCR2 (Mus musculus)
- Construct: host or cells: U2OS β-arrestin cell line
- Sequence (P51683 whole entry): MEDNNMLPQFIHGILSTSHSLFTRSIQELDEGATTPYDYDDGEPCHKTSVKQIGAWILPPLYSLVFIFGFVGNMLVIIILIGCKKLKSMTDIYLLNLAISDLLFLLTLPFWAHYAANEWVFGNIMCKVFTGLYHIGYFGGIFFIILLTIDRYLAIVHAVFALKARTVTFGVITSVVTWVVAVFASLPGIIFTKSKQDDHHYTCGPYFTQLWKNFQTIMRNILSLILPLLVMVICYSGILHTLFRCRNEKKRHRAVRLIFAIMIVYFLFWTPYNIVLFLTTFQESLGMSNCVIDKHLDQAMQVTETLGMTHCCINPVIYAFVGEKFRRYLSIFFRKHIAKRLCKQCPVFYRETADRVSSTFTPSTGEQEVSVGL
- PROTOCOL: Functional β-arrestin recruiting test with human MCP-1 (B-2a)
- Format: cell-based
- MEASUREMENT_PARAMETERS: U2OS β-arrestin cell line transfected with murine CCR2; agonist human MCP-1 at EC50 (about 3 nM); in some cases means of several determinations
Dear colleague, please send the value followed by its unit.

Previously resolved entries follow.
O=c1[nH]c(-n2cccn2)nc(C(F)(F)F)c1Cc1ccc(Cl)c(C(F)(F)F)c1 :: 57 nM
O=c1[nH]c(-c2ccc(Cl)cn2)nc(C(F)(F)F)c1Oc1ccc(Cl)c(Cl)c1 :: 180 nM
O=C(O)c1cc(O)n(-c2nc(C(F)(F)F)c(Cc3ccc(Cl)c(Cl)c3)c(=O)[nH]2)n1 :: 6100 nM

State the recorded IC50 for this entry: O=c1[nH]c(-c2ncccc2Cl)nc(C(F)(F)F)c1Oc1ccc(F)c(Cl)c1
25 nM

State the recorded IC50 for this entry: O=c1[nH]c(-n2cccn2)nc(C(F)(F)F)c1Cc1ccc(Cl)c(Cl)c1
67 nM
